Listed below: median log2 fold change values for each entry.
- ASSAY_SYSTEM: UCHL1, P09936
- Sequence (P09936 whole entry, looked up, the tested form may be a part): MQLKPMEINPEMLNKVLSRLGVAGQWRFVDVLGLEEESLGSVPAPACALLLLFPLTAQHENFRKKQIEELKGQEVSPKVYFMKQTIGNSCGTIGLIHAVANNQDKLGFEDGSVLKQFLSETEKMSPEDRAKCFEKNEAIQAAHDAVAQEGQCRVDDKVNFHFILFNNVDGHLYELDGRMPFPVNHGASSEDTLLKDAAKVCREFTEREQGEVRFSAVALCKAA
- PROCEDURE_SUMMARY: median log2 fold change of GCK-ALFA target abundance (FLAG IP / Myc IP barcode read proportion) (log2 ratio); each designed protein is fused to an ALFA-tag nanobody in HEK293 cells to bring the named protein to FLAG-tagged glucokinase (GCK); Myc marks an untargeted standard; higher = target protein stabilised (more abundant)
- CONDITION_SET: target protein: 3xFLAG-MCP-GCK-ALFA reporter; HEK293 landing pad (RPLP)
Please give the numeric answer without any surrounding text.

Example entries begin here.
uchl1_89_7584 (protein) EEARRAAARERLRRVLAATRERLEALMAKWGVADPEAVAALEELFRHAELAIEDPERAEEALAKAEEAAKRLLALAPEERRADVRMATGRLLNRLLGYVA: -0.114
uchl1_2_7548 (protein) KAEFVGALVTITSTNPETGEVRVARRTLIGLASDIDALMEEIERLVLDFQADTGGATRVRIRIVVSSEEVAERARAAAEEMKARLAAEGIEVEVEIEVVE: -0.489
uchl1_122_7446 (protein) MLTVEVLVSSSLSERVLEILEEYAAALLDNLEVEREEVSPGTRLLTFTGELKDVSEDEIRAIREEALARLAELQDLTPNEKVSFGNALRRIERQVMAARR: -0.238
uchl1_143_7491 (protein) GLDNLEVETVEIEVSEEDTPEELAARLREVIEEALAKGKALRIILTVPPDPNVRLMVNTVARRVLREFAQEHRDELKYVEIYARDEETGKEQLLAEFVNP: 0.302
uchl1_143_7486 (protein) EVEVIELSEEEVAEILALSPEEALERLKEILREAVELGKDTRVLIPAPEDANDRLRLNTLVRRAAREVAKEYADKIESVTISQERDPNGRPRIVVEIKVK: 0.252

Query: GET /values?readout=median log2 fold change&item= uchl1_89_7578 (protein) EAARLAAARARLRRVLAATRAEVERLLARLGEVPPELRAAFDAFFAAAEAAIADPSTAAEALAAAEAAARRLVELAPPEYRASFRLATGRLLNALRGYAA
Reply: 0.184

Query: GET /values?readout=median log2 fold change&item= uchl1_199_7507 (protein) SSLTEDIARNMAGRLLRYIRTPEVLAARAAELTARLIREQTHLSVEELTEIFLLLVDYVHAERTPEETRAATDAIVAEVERLLGDAAAAARIRAHAAALL
Reply: 0.269

Query: GET /values?readout=median log2 fold change&item= uchl1_89_7593 (protein) EEARLAAARAKLREVLARTRAAVEAILARLGEPRPELVALLDAIFEAAEKAIADPAKAEEYVEKAEAAAREFVELAPEEFRSDFRMALGRLINRLLGYAA
Reply: 0.0394

Query: GET /values?readout=median log2 fold change&item= uchl1_199_7514 (protein) MSRAESIARQVGGRLLSGVGSPEVLAARAARLLREVLARLPDLPDEELLAMVRILLEAIAKNRSPETFDAVAAALIAVLQEERGIGAAAAAIAAEVRAKA
Reply: -0.0877

Query: GET /values?readout=median log2 fold change&item= uchl1_143_7482 (protein) EVEVIRLTPEEVEEILSLSPEEALARVKEILAAAVELGKDTEVVFPAPEDANDRLRLGTIVRRAAREVAKEYADKIESVEIYQEKDPDEPPRLVVRITKK
Reply: 0.231

Query: GET /values?readout=median log2 fold change&item= uchl1_2_7570 (protein) KTVFVGVLVTLTSKDAKTGKTYKSRRTYIFTESSIEALAKEIKEDALAFQKDVGVPVTVDIKIYSTKEEVVKKTKAVLEKMAEELAKEGIKVNITGTVVK
Reply: -0.683

Query: GET /values?readout=median log2 fold change&item= uchl1_2_7568 (protein) KTVFVGVKVTLTSENKETGKTYKSTHTLIFTESAIEKLVEEIERLALEFKDATGVPVKVDIEVYSTDEEVLKKLMKELKKMAERLKKEGIEVNITGTLVK
Reply: -0.4

Query: GET /values?readout=median log2 fold change&item= uchl1_143_7462 (protein) GAPALPVLRTTIEVTREDTPEEIHARIVAAIREAIAAGKAAEVTIVVPPDPNVRVMVNNVAKRAAREVAQEHADAVKRITIRLRDRETGRTQLVALVERP
Reply: 0.133

Query: GET /values?readout=median log2 fold change&item= uchl1_89_7596 (protein) EEERRAAARARLRRVLAATRAKLEELIARMGERDPELLAELEAFFAAAEAALEDPETAEAALAAAEEHAVRAVELAPEEYRASFRLALGRLLNALLGYVA
Reply: -0.537

Query: GET /values?readout=median log2 fold change&item= uchl1_2_7546 (protein) KTQFVGALVKMEAYDEETGKTYKSTRTLIGTADAIEKMAEEIYELALNFKDTVGVPVKVKVDVVVASEETKKKAEAALKKMKEKLKKEGIEVEVKVTVVE
Reply: -1.13

Query: GET /values?readout=median log2 fold change&item= uchl1_2_7526 (protein) KTKFVGVLVTLTSYNEETGKTYVSRRTLILSESGIEKLSEEILELVDRFKQVNGDNIKVKIHVVSTDEEALEKAKEKVEEAKEELEKRGVEVEVEYELVK
Reply: -0.696

Query: GET /values?readout=median log2 fold change&item= uchl1_122_7440 (protein) MITIEIEVSSSLSEKGLEILAEAAKKLLDNAKIEVKEKSPSTKLITITGELKDLSEEEILEIENEALEEAGKDQSLTPNQRVSFGNALRRLAIQYAKAKA
Reply: 0.144
